assay: Inhibition of Saccharomyces cerevisiae alpha-glucosidase using PNP-G as substrate incubated for 20 mins followed by substrate addition
The following molecules are listed with their measured pIC50 values.
// pIC50: -log10(molar conc.)

{"columns": ["molecule", "pIC50"],
 "data": [
  ["CCc1c(OC)cc2c(c1O)C(=O)[C@H](C)[C@@H](C)[C@H]2O", 3.81],
  ["CCCc1cc(=O)c2c(OC)cccc2o1", 4.08],
  ["COc1cccc2c1C(=O)CC(C)O2 (stereo unspecified)", 4.82],
  ["CCc1c(OC)cc2c(=O)c(C)c(C)oc2c1O", 4.00],
  ["CCc1c(OC)cc2c(c1O)C(=O)[C@H](C)[C@@H](C)[C@@H]2O", 4.46]
]}

# input State, in one line, measured pIC50 of C/C(=C\CO)[C@@H]1OC(=O)C(C)(C)[C@@H](O)[C@H]1C
# output 4.70

# input Please list pIC50 recorded for the molecule COc1cc(O)cc2oc(C)c(C)c(=O)c12
# output 4.89

# input Could you please provide reported pIC50 for CC(=O)OC/C=C(\C)[C@@H]1OC(=O)C(C)(C)[C@@H](O)[C@H]1C ? Thanks!
# output 3.62

# input Report measured pIC50; entry is CCc1ccc2c(c1O)C(=O)[C@](O)(CC)[C@@H](O)C2
# output 4.42

# input Report measured pIC50; entry is C[C@H]1O[C@H](O[C@H]2[C@H](O)[C@@H](O)[C@@H](O[C@H]3[C@H](O)[C@@H](O)C(O)O[C@@H]3CO)O[C@@H]2CO)[C@H](O)[C@@H](O)[C@@H]1N[C@H]1C=C(CO)[C@@H](O)[C@H](O)[C@H]1O (stereo partly specified)
# output 5.52

----------
system: Staphylococcus epidermidis; assay: Antibacterial activity against Staphylococcus albus ATCC 8032 by microplate assay method; assay type: functional, organism-based
Active and inactive are the calls of the source. No cut-off for these calls is given here.
test_readout: Activity

# annotated cases, reported Activity shown
{"columns": ["smiles_structure", "Activity"],
 "data": [
  ["CC(=O)OC/C=C(\\C)[C@@H]1OC(=O)C(C)(C)[C@@H](O)[C@H]1C", "inactive"],
  ["CCc1c(OC)cc2c(=O)c(C)c(C)oc2c1O", "inactive"],
  ["COc1cc(O)cc2oc(C)c(C)c(=O)c12", "inactive"],
  ["COc1cccc2c1[C@H](O)CCC2=O", "inactive"],
  ["CCc1c(OC)cc2c(c1O)C(=O)[C@H](C)[C@@H](C)[C@H]2O", "inactive"]
]}

# input Would you please give the reported Activity of C/C=C(\C)[C@@H]1OC(=O)C(C)(C)[C@H](O)[C@H]1C with Staphylococcus epidermidis?
# output inactive

# input Write down measured Activity (Staphylococcus epidermidis) for this molecule. C/C(=C\CO)[C@@H]1OC(=O)C(C)(C)[C@@H](O)[C@H]1C
# output inactive

# input Provide Activity, system Staphylococcus epidermidis, entry O=C1CC[C@H](O)c2cccc(O)c21
# output inactive

# input Tell me Activity of CCc1c(O)cc2c(=O)oc(C)c(C)c(=O)c2c1OC when tested on Staphylococcus epidermidis.
# output inactive

----------
IC50 listing for selected compounds.
assay: Inhibition of Saccharomyces cerevisiae alpha-glucosidase using PNP-G as substrate incubated for 20 mins followed by substrate addition
Respond with the bare value in µM.

{"columns": ["compound", "test_readout", "recorded_result"],
 "data": [
  ["COc1cccc2c1[C@H](O)CCC2=O", "IC50", 90]
]}

# input Check the records and state IC50 for C/C=C(\C)[C@@H]1OC(=O)C(C)(C)[C@@H](O)[C@H]1C
# output 16

# input Answer with the recorded IC50 for the compound listed here: Cc1cc2c(c(O)c1C)C(=O)C[C@@H](O)[C@H]2O (relative stereo)
# output 21

# input Give IC50 for C/C=C(\C)[C@@H]1OC(=O)C(C)(C)[C@H](O)[C@H]1C
# output 31

# input Give the measured IC50 for CCc1c(O)cc2c(=O)oc(C)c(C)c(=O)c2c1OC
# output 54

# input Answer with reported IC50 of O=C1CC[C@H](O)c2cccc(O)c21
# output 70
